Target: Vasopressin V2 receptor (Sus scrofa)
Assay: Compound was tested for binding affinity against V2 vasopressin receptor in pig renal medullary membrane preparations using tritiated LVP.
Format: cell membranes
Details: Renal medulla
METRIC: K bind (nM)
Answers are plain numbers, in nM.

CCOc1ccc(C[C@H]2NC(=O)CC(CC)(CC)SSC[C@H](C(=O)N3CCC[C@H]3C(=O)N[C@H](CCCN=C(N)N)C(N)=O)NC(=O)[C@@H](CC(N)=O)NC(=O)[C@H](C(C)C)NC(=O)[C@@H](Cc3ccccc3)NC2=O)cc1    30

Quick request: K bind for each listed item, please.
1. CCOc1ccc(C[C@H]2NC(=O)CC(CC)(CC)SSC[C@H](C(=O)N3CCC[C@H]3C(=O)N[C@H](CCCN=C(N)N)C(=O)NCC(N)=O)NC(=O)[C@@H](CC(N)=O)NC(=O)[C@H](C(C)C)NC(=O)[C@@H](Cc3ccccc3)NC2=O)cc1
2. CCOc1ccc(C[C@H]2NC(=O)CC(C)(C)SSC[C@H](C(=O)N3CCC[C@H]3C(=O)N[C@H](CCCN=C(N)N)C(=O)NCC(N)=O)NC(=O)[C@@H](CC(N)=O)NC(=O)[C@H](C(C)C)NC(=O)[C@@H](Cc3ccccc3)NC2=O)cc1
3. CCOc1ccc(C[C@H]2NC(=O)CC3(CCCCC3)SSC[C@H](C(=O)N3CCC[C@H]3C(=O)N[C@H](CCCN=C(N)N)C(N)=O)NC(=O)[C@@H](CC(N)=O)NC(=O)[C@H](C(C)C)NC(=O)[C@@H](Cc3ccccc3)NC2=O)cc1

A:
[35, 39, 12]
